All figures here come from patent US20230192890A1.

- targetSystem: T1, Ala mutant SEQ ID NO: 42 (human)
- T1 sequence (peptide): EENMDDQWMQDEMEIAY
- testDescription: ELISA, peptide on plate (10 ug/mL)
// values below are reported absorbance 490 nm/630 nm
Answer in OD, number only, no unit symbol.

INSERT INTO assay_data (binder, measuredvalue) VALUES
  ('G9 (antibody, IgG1, V domains shown) VH: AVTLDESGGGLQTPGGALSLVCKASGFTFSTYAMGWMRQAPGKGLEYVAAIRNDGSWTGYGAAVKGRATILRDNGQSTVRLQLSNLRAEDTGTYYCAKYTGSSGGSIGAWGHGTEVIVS VL: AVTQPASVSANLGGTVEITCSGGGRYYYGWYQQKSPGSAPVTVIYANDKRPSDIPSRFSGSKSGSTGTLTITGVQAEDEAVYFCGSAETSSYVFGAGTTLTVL', 1.85),
  ('A11 (antibody, IgG1, V domains shown) VH: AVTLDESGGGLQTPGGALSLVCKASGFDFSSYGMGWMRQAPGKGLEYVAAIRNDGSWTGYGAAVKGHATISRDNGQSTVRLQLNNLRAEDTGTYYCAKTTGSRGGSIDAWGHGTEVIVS VL: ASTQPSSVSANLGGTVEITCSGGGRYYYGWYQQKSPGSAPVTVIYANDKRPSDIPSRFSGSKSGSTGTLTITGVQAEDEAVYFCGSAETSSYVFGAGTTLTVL', 1.88);

Q: Please look up its absorbance 490 nm/630 nm: G6 (antibody, IgG1, V domains shown) VH: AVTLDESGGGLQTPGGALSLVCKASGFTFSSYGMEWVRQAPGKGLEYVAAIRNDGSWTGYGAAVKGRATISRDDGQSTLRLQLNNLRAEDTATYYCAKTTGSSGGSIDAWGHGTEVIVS VL: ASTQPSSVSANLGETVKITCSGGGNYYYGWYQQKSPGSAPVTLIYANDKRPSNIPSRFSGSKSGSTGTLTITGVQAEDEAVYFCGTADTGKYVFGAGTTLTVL
A: 1.87
